Data origin, for the record: the supplement of paper PMC10065799

# TARGET UNDER TEST: Fes (UniProt P07332)
# Sequence (P07332 whole entry, looked up): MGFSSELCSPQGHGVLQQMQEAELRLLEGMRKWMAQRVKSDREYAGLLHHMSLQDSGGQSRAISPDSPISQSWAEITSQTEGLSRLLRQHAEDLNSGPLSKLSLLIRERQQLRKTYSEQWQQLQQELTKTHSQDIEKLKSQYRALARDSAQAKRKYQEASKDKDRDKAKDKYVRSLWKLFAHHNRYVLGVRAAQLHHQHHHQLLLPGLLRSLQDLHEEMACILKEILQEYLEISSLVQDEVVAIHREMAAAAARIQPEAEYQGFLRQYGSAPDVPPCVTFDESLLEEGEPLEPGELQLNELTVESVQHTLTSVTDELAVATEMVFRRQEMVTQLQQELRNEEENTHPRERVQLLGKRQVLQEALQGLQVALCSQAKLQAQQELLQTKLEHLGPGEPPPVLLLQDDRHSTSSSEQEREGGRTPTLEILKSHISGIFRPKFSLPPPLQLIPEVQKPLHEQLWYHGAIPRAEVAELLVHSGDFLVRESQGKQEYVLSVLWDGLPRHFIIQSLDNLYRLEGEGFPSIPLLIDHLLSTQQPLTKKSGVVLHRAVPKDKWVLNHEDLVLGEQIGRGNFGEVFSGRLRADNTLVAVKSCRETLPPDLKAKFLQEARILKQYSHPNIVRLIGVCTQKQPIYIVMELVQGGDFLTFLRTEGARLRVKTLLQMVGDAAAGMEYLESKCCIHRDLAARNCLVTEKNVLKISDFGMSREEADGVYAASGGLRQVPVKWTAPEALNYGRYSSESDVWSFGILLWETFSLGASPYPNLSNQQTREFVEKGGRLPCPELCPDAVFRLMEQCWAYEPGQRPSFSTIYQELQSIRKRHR
# ASSAY NOTES: phosphorylation enrichment, bacterial display (enrichment ratio); higher = better substrate or ligand; peptides without Tyr show the background;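 further: 11-residue human phosphosite peptides and single-mutation variants displayed on the E. coli surface, counted by deep sequencing, each peptide's frequency after selection divided by its frequency in the unselected input library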;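 further: frequency after pTyr selection over input frequency; kinase dosed for 20-30% of maximal phosphorylation in three min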

SEQUENCE CODE | phosphorylation enrichment
LIFVSYDDWDF [GRIN2A_Y281_S278F_YF] | 4.34
SPFAVYLFFTF [RPGRIP1_Y826_R827L_YF] | 0.925
RELSWYRGQRP [HESX1_Y106_R109Q] | 0.901
FADIAYSFRHG [PAH_Y166_N167S_YF] | 0.674
RIAFQYGVTDL [MYBPC3_Y340] | 1.28
KVGNGYISAAE [CALM2_Y100_D96V] | 0.65
DPFHVYIKNRV [KCNE3_Y95_YF] | 1.19
AEFGLYGAMVW [VSX2_Y222_R227W_YF] | 1.48
NVLPEYKLQAP [KCNH2_Y388_D383N] | 0.949
QYPDIYAREEV [CRX_Y67_V66I] | 2.14
SLDLSYFTTSS [EMD_Y181_P183T_YF] | 0.836
LVTRSYLLGNS [LMNA_Y646] | 1.52
LLTALYFISRG [KCNH2_Y780] | 1.69
